Below, each of the compounds is paired with its reported IC50 value.
- Test system: LU-99A;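 further: growth inhibition of LU-99A cells, read out with a cell viability assay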
- Assay Notes: cells
- Type: functional, cell-based
- Details: Homo sapiens
- Description: SANGER: Inhibition of human LU-99A cell growth in a cell viability assay.
Measured Attribute: IC50

- Compound: "N#C/C(=C1/Nc2ccccc2S1)c1ccnc(NCCc2cccnc2)n1"
  Recorded Value: "> 8000 nM"
- Compound: "COc1cc(Nc2c(C#N)cnc3cc(OCCCN4CCN(C)CC4)c(OC)cc23)c(Cl)cc1Cl [BOSUTINIB]"
  Recorded Value: "> 2000 nM"
- Compound: "CC[C@]1(O)C[C@@H]2CN(CCc3c([nH]c4ccccc34)[C@@](C(=O)OC)(c3cc4c(cc3OC)N(C)[C@H]3[C@@](O)(C(=O)OC)[C@H](OC(C)=O)[C@]5(CC)C=CCN6CC[C@]43[C@@H]65)C2)C1 [VINBLASTINE]"
  Recorded Value: "20.8 nM"
- Compound: "CC(=O)c1c(C)c2cnc(Nc3ccc(N4CCNCC4)cn3)nc2n(C2CCCC2)c1=O [PALBOCICLIB]"
  Recorded Value: "> 4000 nM"
- Compound: "C[C@]12O[C@H](C[C@]1(O)CO)n1c3ccccc3c3c4c(c5c6ccccc6n2c5c31)CNC4=O [LESTAURTINIB]"
  Recorded Value: "1010 nM"
- Compound: "C/C(O)=C(\\C#N)C(=O)Nc1cc(Br)ccc1Br"
  Recorded Value: "> 16000 nM"

* * *

- Tested on: NOS-1
- Assay Notes: cells
- Assay type: functional, cell-based
- Details: Homo sapiens
- Description: SANGER: Inhibition of human NOS-1 cell growth in a cell viability assay.
pIC50: −log10 of the molar value.

- Molecule: "C[C@]1(c2nc3c(C(N)=O)cccc3[nH]2)CCCN1 [VELIPARIB]"
  Target Or Test System: "NOS-1"
  Reading Qualifier: "<"
  pIC50: 5.30
- Molecule: "Cc1[nH]c(/C=C2\\C(=O)Nc3ccc(S(=O)(=O)Cc4c(Cl)cccc4Cl)cc32)c(C)c1C(=O)N1CCC[C@@H]1CN1CCCC1 [PHA-665752]"
  Target Or Test System: "NOS-1"
  Reading Qualifier: "<"
  pIC50: 5.70
- Molecule: "CO[C@@]12[C@H](COC(N)=O)C3=C(C(=O)C(C)=C(N)C3=O)N1C[C@@H]1N[C@@H]12 [MITOMYCIN]"
  Target Or Test System: "NOS-1"
  Reading Qualifier: "="
  pIC50: 5.82
- Molecule: "Cc1n[nH]c2ccc(-c3cncc(OC[C@@H](N)Cc4c[nH]c5ccccc45)c3)cc12 [A-443654]"
  Target Or Test System: "NOS-1"
  Reading Qualifier: "="
  pIC50: 7.03
- Molecule: "Cn1cc(/C=C2\\C(=O)Nc3cccnc32)c2ccccc21"
  Target Or Test System: "NOS-1"
  Reading Qualifier: "<"
  pIC50: 5.70
- Molecule: "O=c1cc(N2CCOCC2)oc2c(-c3cccc4c3sc3ccccc34)cccc12"
  Target Or Test System: "NOS-1"
  Reading Qualifier: "<"
  pIC50: 5.70
- Molecule: "COc1cc(C)c(Sc2cnc(NC(=O)c3ccc(CNC(C)C(C)(C)C)cc3)s2)cc1C(=O)N1CCN(C(C)=O)CC1 (centres undefined)"
  Target Or Test System: "NOS-1"
  Reading Qualifier: "="
  pIC50: 5.89
- Molecule: "COc1cc(Nc2c(C#N)cnc3cc(OCCCN4CCN(C)CC4)c(OC)cc23)c(Cl)cc1Cl [BOSUTINIB]"
  Target Or Test System: "NOS-1"
  Reading Qualifier: "<"
  pIC50: 5.70
- Molecule: "Cn1c(=O)n(-c2ccc(C(C)(C)C#N)cc2)c2c3cc(-c4cnc5ccccc5c4)ccc3ncc21 [DACTOLISIB]"
  Target Or Test System: "NOS-1"
  Reading Qualifier: "="
  pIC50: 7.52

* * *

- Test system: NCI-H2170;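 further: cell viability assay measuring growth inhibition of human NCI-H2170 cancer cells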
- Assay Notes: cells
- Format: functional, cell-based
- Details: Homo sapiens
- Description: SANGER: Inhibition of human NCI-H2170 cell growth in a cell viability assay.
pIC50: −log10 of the molar value.
Catalogue of pIC50 readings, one per entry.
Measured Attribute: pIC50

- Compound Structure String: "CC[C@]1(O)C[C@@H]2CN(CCc3c([nH]c4ccccc34)[C@@](C(=O)OC)(c3cc4c(cc3OC)N(C)[C@H]3[C@@](O)(C(=O)OC)[C@H](OC(C)=O)[C@]5(CC)C=CCN6CC[C@]43[C@@H]65)C2)C1"
  Target Or Test System: "NCI-H2170"
  Measured Attribute: "pIC50"
  Reading Qualifier: "="
  Recorded Value: 7.48
- Compound Structure String: "O=c1cc(N2CCOCC2)oc2c(-c3cccc4c3sc3ccccc34)cccc12"
  Target Or Test System: "NCI-H2170"
  Measured Attribute: "pIC50"
  Reading Qualifier: "<"
  Recorded Value: 5.70
- Compound Structure String: "N#C/C(=C1/Nc2ccccc2S1)c1ccnc(NCCc2cccnc2)n1"
  Target Or Test System: "NCI-H2170"
  Measured Attribute: "pIC50"
  Reading Qualifier: "<"
  Recorded Value: 5.10
- Compound Structure String: "CC(C)=CC[C@@H](O)C1=CC(=O)c2c(O)ccc(O)c2C1=O"
  Target Or Test System: "NCI-H2170"
  Measured Attribute: "pIC50"
  Reading Qualifier: "="
  Recorded Value: 5.77

* * *

Reported values of pIC50 for individual entries
- System: 786-0
- Assay Notes: cells
- Format: functional, cell-based
- Details: Homo sapiens
- Description: SANGER: Inhibition of human 786-0 cell growth in a cell viability assay.
pIC50: −log10 of the molar value.
Measured Attribute: pIC50

- Compound Structure String: "CCNC(=O)c1noc(-c2cc(C(C)C)c(O)cc2O)c1-c1ccc(CN2CCOCC2)cc1"
  Target Or Test System: "786-0"
  Reading Qualifier: "="
  Recorded Value: 8.18
- Compound Structure String: "CC(=O)c1c(C)c2cnc(Nc3ccc(N4CCNCC4)cn3)nc2n(C2CCCC2)c1=O"
  Target Or Test System: "786-0"
  Reading Qualifier: "="
  Recorded Value: 5.67
- Compound Structure String: "NC(=O)[C@@H](CCC(F)(F)F)N(Cc1ccc(-c2ncon2)cc1F)S(=O)(=O)c1ccc(Cl)cc1"
  Target Or Test System: "786-0"
  Reading Qualifier: "="
  Recorded Value: 6.49
- Compound Structure String: "O=c1cc(N2CCOCC2)oc2c(-c3cccc4c3sc3ccccc34)cccc12"
  Target Or Test System: "786-0"
  Reading Qualifier: "<"
  Recorded Value: 5.70

* * *

Parameter pIC50: see the listing below.
- Test system: YKG-1;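 further: cell growth inhibition, read out with a viability assay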
- Assay Notes: cells
- Assay type: functional, cell-based
- Details: Homo sapiens
- Description: SANGER: Inhibition of human YKG-1 cell growth in a cell viability assay.
pIC50: −log10 of the molar value.

- Compound Structure String: "NC(=O)c1ncn([C@@H]2O[C@H](COP(=O)(O)O)[C@@H](O)[C@H]2O)c1N"
  Reading Qualifier: "="
  pIC50: 3.26
- Compound Structure String: "O=c1cc(N2CCOCC2)oc2c(-c3cccc4c3sc3ccccc34)cccc12"
  Reading Qualifier: "<"
  pIC50: 5.70

* * *

- Test system: EW-24;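 further: human EW-24 cancer cell line, growth inhibition read out via a cell viability assay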
- Assay Notes: cells
- Format: functional, cell-based
- Details: Homo sapiens
- Description: SANGER: Inhibition of human EW-24 cell growth in a cell viability assay.
pIC50: −log10 of the molar value.

- Molecule: "CCNC(=O)c1noc(-c2cc(C(C)C)c(O)cc2O)c1-c1ccc(CN2CCOCC2)cc1"
  Target Or Test System: "EW-24"
  pIC50: "< 6.59"
- Molecule: "COc1cc(Nc2c(C#N)cnc3cc(OCCCN4CCN(C)CC4)c(OC)cc23)c(Cl)cc1Cl"
  Target Or Test System: "EW-24"
  pIC50: "< 5.70"
- Molecule: "CC(O)(CS(=O)(=O)c1ccc(F)cc1)C(=O)Nc1ccc(C#N)c(C(F)(F)F)c1 (stereo not drawn) [BICALUTAMIDE]"
  Target Or Test System: "EW-24"
  pIC50: "< 5.99"

* * *

- Test system: CW-2;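 further: growth inhibition of CW-2 cells, read out by a cell viability assay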
- Assay Notes: cells
- Format: functional, cell-based
- Details: Homo sapiens
- Description: SANGER: Inhibition of human CW-2 cell growth in a cell viability assay.

- Molecule: "CCn1c(-c2nonc2N)nc2cnc(Oc3cccc(NC(=O)c4ccc(OCCN5CCOCC5)cc4)c3)cc21 [GSK-269962A]"
  IC50: "> 2.5 µM"
- Molecule: "CC[C@]1(O)C[C@@H]2CN(CCc3c([nH]c4ccccc34)[C@@](C(=O)OC)(c3cc4c(cc3OC)N(C)[C@H]3[C@@](O)(C(=O)OC)[C@H](OC(C)=O)[C@]5(CC)C=CCN6CC[C@]43[C@@H]65)C2)C1"
  IC50: "> 0.1 µM"
- Molecule: "Cn1cc(/C=C2\\C(=O)Nc3cccnc32)c2ccccc21"
  IC50: "> 2 µM"
- Molecule: "CCNC(=O)c1noc(-c2cc(C(C)C)c(O)cc2O)c1-c1ccc(CN2CCOCC2)cc1"
  IC50: "> 0.256 µM"
- Molecule: "C/C(O)=C(\\C#N)C(=O)Nc1cc(Br)ccc1Br"
  IC50: "> 16 µM"
- Molecule: "COc1cc(C)c(Sc2cnc(NC(=O)c3ccc(CNC(C)C(C)(C)C)cc3)s2)cc1C(=O)N1CCN(C(C)=O)CC1 (configuration not stated)"
  IC50: "> 10.2 µM"
- Molecule: "COc1cc(Nc2c(C#N)cnc3cc(OCCCN4CCN(C)CC4)c(OC)cc23)c(Cl)cc1Cl"
  IC50: "> 2 µM"
